Origin of values: patent US8771665B2

Recorded measurements of pIC50, one per entry
# STUDY SYSTEM: HCV1b NS5B polymerase delta 21 (Hepatitis C virus genotype 1b, UniProt P26663)
# Construct: purified HCV1b NS5B polymerase delta 21
# Sequence (P26663 2420-2989): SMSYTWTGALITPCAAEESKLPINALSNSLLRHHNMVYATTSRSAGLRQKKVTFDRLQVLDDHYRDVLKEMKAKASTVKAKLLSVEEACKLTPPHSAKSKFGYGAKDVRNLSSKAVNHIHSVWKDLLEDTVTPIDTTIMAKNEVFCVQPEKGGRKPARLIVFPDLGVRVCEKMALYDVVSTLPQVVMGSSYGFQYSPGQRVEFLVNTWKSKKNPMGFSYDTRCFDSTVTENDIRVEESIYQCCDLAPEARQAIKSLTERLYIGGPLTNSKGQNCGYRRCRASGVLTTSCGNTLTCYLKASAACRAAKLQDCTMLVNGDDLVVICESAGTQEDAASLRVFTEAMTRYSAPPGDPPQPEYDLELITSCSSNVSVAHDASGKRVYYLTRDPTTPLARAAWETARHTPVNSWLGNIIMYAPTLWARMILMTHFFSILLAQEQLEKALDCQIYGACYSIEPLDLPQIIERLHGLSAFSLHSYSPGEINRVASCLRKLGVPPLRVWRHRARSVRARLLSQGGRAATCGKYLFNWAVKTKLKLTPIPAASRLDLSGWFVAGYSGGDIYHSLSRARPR
# ASSAY INFO: RNA-Dependent RNA HCV NS5B (Polymerase) Assay and IC50 Determination
# Type: biochemical
pIC50: −log10 of the molar value.
METRIC: pIC50

- MOLECULE: "CC1CCC(C2=C(c3cc(C#CC(C)(C)C)sc3C(=O)O)CCN(C)C2)CC1 (stereo not shown)"
  STUDY SYSTEM: "HCV1b NS5B polymerase delta 21 (Hepatitis C virus genotype 1b, UniProt P26663)"
  VAL: "> 5.52"
- MOLECULE: "CCN1CCC(c2cc(C#CC3CCCC3)sc2C(=O)O)=C(C2CCC(C)CC2)C1 (stereo not shown)"
  STUDY SYSTEM: "HCV1b NS5B polymerase delta 21 (Hepatitis C virus genotype 1b, UniProt P26663)"
  VAL: "5.00 to 5.52"
- MOLECULE: "CCN1CCC(c2cc(-c3ccccc3)sc2C(=O)O)=C(C2CCC(C)CC2)C1 (stereo not shown)"
  STUDY SYSTEM: "HCV1b NS5B polymerase delta 21 (Hepatitis C virus genotype 1b, UniProt P26663)"
  VAL: "> 5.52"
- MOLECULE: "CC1CCC(C2=C(c3cc(C#CC4CC4)sc3C(=O)O)CCN(Cc3ccccn3)C2)CC1 (stereo not shown)"
  STUDY SYSTEM: "HCV1b NS5B polymerase delta 21 (Hepatitis C virus genotype 1b, UniProt P26663)"
  VAL: "> 5.52"
- MOLECULE: "CC1CCC(C2=C(c3cc(-c4ccc(N(C)C(=O)c5cscn5)cc4)sc3C(=O)O)CCN(C)C2)CC1 (stereo not shown)"
  STUDY SYSTEM: "HCV1b NS5B polymerase delta 21 (Hepatitis C virus genotype 1b, UniProt P26663)"
  VAL: "5.00 to 5.52"
- MOLECULE: "CC1CCC(C2=C(c3cc(C#CC(C)(C)C)sc3C(=O)O)CN(CCO)CC2)CC1 (stereo not shown)"
  STUDY SYSTEM: "HCV1b NS5B polymerase delta 21 (Hepatitis C virus genotype 1b, UniProt P26663)"
  VAL: "> 5.52"
- MOLECULE: "CC1CCC(C2=C(c3cc(-c4ccccc4)sc3C(=O)O)CCN(Cc3ccccc3)C2)CC1 (stereo not shown)"
  STUDY SYSTEM: "HCV1b NS5B polymerase delta 21 (Hepatitis C virus genotype 1b, UniProt P26663)"
  VAL: "5.00 to 5.52"
- MOLECULE: "CCN1CCC(c2cc(-c3ccc(NCc4cscn4)cc3)sc2C(=O)O)=C(C2CCC(C)CC2)C1 (stereo not shown)"
  STUDY SYSTEM: "HCV1b NS5B polymerase delta 21 (Hepatitis C virus genotype 1b, UniProt P26663)"
  VAL: "< 5.00"
- MOLECULE: "CC1CC=C(C2=C(c3cc(-c4ccc(-c5cc6ncccn6n5)cc4)sc3C(=O)O)CCN(C)C2)CC1 (stereo not shown)"
  STUDY SYSTEM: "HCV1b NS5B polymerase delta 21 (Hepatitis C virus genotype 1b, UniProt P26663)"
  VAL: "> 5.52"
- MOLECULE: "CCc1cc(CC)n2nc(CN3CCC(c4cc(-c5ccccc5)sc4C(=O)O)=C(C4CCC(C)CC4)C3)nc2n1 (stereo not shown)"
  STUDY SYSTEM: "HCV1b NS5B polymerase delta 21 (Hepatitis C virus genotype 1b, UniProt P26663)"
  VAL: "> 5.52"
- MOLECULE: "Cc1ccc(S(=O)(=O)N2CCC(c3cc(-c4ccccc4)sc3C(=O)O)=C(C3CCC(C)CC3)C2)cc1 (stereo not shown)"
  STUDY SYSTEM: "HCV1b NS5B polymerase delta 21 (Hepatitis C virus genotype 1b, UniProt P26663)"
  VAL: "< 5.00"
- MOLECULE: "CC1CCC(C2=C(c3cc(-c4ccccc4)sc3C(=O)O)CCN(Cc3ccnc(Br)c3)C2)CC1 (stereo not shown)"
  STUDY SYSTEM: "HCV1b NS5B polymerase delta 21 (Hepatitis C virus genotype 1b, UniProt P26663)"
  VAL: "5.00 to 5.52"
- MOLECULE: "CCN1CCC(c2cc(-c3cccc(NC(=O)c4cscn4)c3)sc2C(=O)O)=C(C2CCC(C)CC2)C1 (stereo not shown)"
  STUDY SYSTEM: "HCV1b NS5B polymerase delta 21 (Hepatitis C virus genotype 1b, UniProt P26663)"
  VAL: "< 5.00"
